Value source: ChEMBL document CHEMBL3352441

Assay: Inhibition of beta-lactamase CTX M-15 (unknown origin) using nitrocefin substrate by enzymatic turnover assay
QUANTITY_MEASURED: IC50 (µM)

In [3]: df
Out[3]:
                                   compound  quantity_measured  readout_value
0  CC(C)(C)C1=C(C(=O)[O-])N2C(=O)/C(=C\c3ccccc3)C2O1.[Na+] (stereo not drawn)               IC50            2.2
1  CC(C)(C)C1=C(C(=O)[O-])N2C(=O)/C(=C/c3ccco3)C2O1.[Na+] (racemic)               IC50          0.002
2  COc1cccc(/C=C2/C(=O)N3C(C(=O)[O-])=C(C(C)(C)C)OC23)c1.[Na+] (stereo not drawn)               IC50          0.022
